tested on: SF-268 CNS; experiment: NCI tumour cell line growth inhibition, 48 h

Compound	Display Unit	Result Operator	TGI
C/C(CC(=O)Nc1ccc(NC(=O)C/C(C)=N\NC(N)=O)cc1)=N/NC(N)=O	µM	>	100
C=CCn1c(=N)/c(=C(\N)O)s/c1=C1/SC(=S)N(c2ccc(C)cc2)C1=O	µM	>	100
Cc1cn(C2OC(CO)C(O)C2F)c(=O)[nH]c1=O (configuration not stated)	µM	>	100
COC(=O)CC(C(C(C)=O)C(=O)OCc1ccccc1)N1C(=O)OC(c2ccccc2)C1c1ccccc1 (configuration not stated)	µM	>	100
CC(=O)O[C@H]1C(=O)[C@@]2(C)[C@H]([C@H](OC(=O)c3ccccc3)[C@]3(O)C[C@H](OC(=O)[C@H](O)[C@@H](NC(=O)c4ccc(N(C)C)cc4)c4ccccc4)C(C)=C1C3(C)C)[C@]1(OC(C)=O)CO[C@@H]1C[C@@H]2O	µM	>	50
S=C(CSc1ccccc1)Nc1cccc2ccccc12	µM	>	100
COc1ccc(-c2nsc3c2NC(=O)CC3c2cccc(Cl)c2)cc1 (configuration not stated)	µM	>	100
CCN(CC)CCN1C(=O)C(=O)N(c2cccc3ccccc23)C1=O	µM	>	10
CC(CC[C@@]1(O)OC2C[C@H]3[C@@H]4CC[C@H]5CC(OC6OC(CO)C(OC7OC(CO)C(O)C(OC8OCC(O)C(O)C8O)C7OC7OC(CO)C(O)C(O)C7O)C(O)C6O)[C@H](O)CC5(C)[C@H]4CCC3(C)C2[C@@H]1C)COC1OC(CO)C(O)C(O)C1O (some centres not stated)	µM	=	9.32
CC1(C)OC2OC(COC(=O)c3ccc(C#N)cc3)C3OC(C)(C)OC3C2O1 (configuration not stated)	µM	>	75
Cc1c(C)c2c(c(C)c1OCC(=O)O)CC[C@@](C)(CCC[C@@H](C)CCC[C@@H](C)CCCC(C)C)O2	µM	=	196
COc1ccc2[nH]c(C(=O)OCc3ccc4cccc(O)c4n3)cc2c1	µM	=	3.13
O=C([CH-]C(=O)c1ccccc1)c1ccccc1.O=C([CH-]C(=O)c1ccccc1)c1ccccc1.O=C([CH-]C(=O)c1ccccc1)c1ccccc1.[Cl-].[Zr+4]	µM	>	100
O=C(Nc1ccc2c(c1)OCCO2)C(=O)c1c[nH]c2ccccc12	µM	=	37.5
O=C(C1OC1c1cccc([N+](=O)[O-])c1)C12CC3CC(CC(C3)C1)C2 (configuration not stated)	µM	=	9.18
COc1cc(C2c3cc4c(cc3[C@@H](N(C)c3ccc(N(C)C)cc3)C3COC(=O)C23)OCO4)cc(OC)c1O (some centres not stated)	µM	=	6.85
O=C(Oc1ccccc1)C(Br)C(Br)c1ccccc1 (configuration not stated)	µM	=	15.2
